# target_or_system: METTL3-14 complex (Homo sapiens, UniProt Q86U44)
# Construct: genes encoding the full-length and MTase domain of human METTL3; METTL3-14 FL: full length of METTL3-14; 10x His (thrombin-cleavable) (cleaved yes); made in house; host or cells: Trichoplusia ni (Hi5) cells co-infected with two baculoviruses (virus made in Sf9)
# Sequence (Q86U44 whole entry, the tested form may be a part): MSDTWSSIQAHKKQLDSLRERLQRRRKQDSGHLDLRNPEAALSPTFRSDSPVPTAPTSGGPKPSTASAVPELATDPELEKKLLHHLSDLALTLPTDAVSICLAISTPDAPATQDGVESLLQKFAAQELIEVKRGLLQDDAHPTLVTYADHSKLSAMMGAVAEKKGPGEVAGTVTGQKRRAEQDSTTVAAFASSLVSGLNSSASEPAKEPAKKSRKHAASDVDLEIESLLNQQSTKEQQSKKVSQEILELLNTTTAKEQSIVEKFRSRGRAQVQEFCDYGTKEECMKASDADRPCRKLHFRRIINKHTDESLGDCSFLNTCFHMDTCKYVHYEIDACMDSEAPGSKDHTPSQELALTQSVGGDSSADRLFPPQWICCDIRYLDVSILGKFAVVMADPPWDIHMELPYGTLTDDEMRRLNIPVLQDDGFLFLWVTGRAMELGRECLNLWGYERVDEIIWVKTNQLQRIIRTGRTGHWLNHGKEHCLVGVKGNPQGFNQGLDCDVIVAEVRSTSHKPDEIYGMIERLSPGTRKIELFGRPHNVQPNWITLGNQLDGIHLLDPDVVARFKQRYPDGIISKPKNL
# Sequence (Q9HCE5 whole entry partner, the tested form may be a part): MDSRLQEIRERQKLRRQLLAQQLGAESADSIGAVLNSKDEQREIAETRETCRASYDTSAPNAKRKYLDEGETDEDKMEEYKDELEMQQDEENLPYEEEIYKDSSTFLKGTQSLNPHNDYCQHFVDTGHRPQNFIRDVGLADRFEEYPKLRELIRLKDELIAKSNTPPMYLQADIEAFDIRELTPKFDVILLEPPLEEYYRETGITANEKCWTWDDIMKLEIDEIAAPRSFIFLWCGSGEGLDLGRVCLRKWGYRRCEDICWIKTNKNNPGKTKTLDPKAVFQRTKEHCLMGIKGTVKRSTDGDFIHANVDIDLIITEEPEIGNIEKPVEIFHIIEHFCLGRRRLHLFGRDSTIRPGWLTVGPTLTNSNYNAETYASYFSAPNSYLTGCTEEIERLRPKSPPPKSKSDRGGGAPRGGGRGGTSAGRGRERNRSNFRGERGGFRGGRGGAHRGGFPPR
# test_protocol: METTL3-14 enzyme-based bioluminescence assay (screening assay)
# Type: biochemical
# test_conditions: full length METTL3-14 30 nM, SAM 300 nM, RNA substrate 300 nM, 1 h; read-out: IC50, METTL3-14 inhibition, bioluminescence enzyme based assay
quantity_kind: IC50
Quote the value and follow it with the unit of measurement.

Value of measured IC50 for the entry CC1=NN(c2ccc(C)c(C)c2)C(=O)/C1=N\Nc1cccc(-c2cccc(C(=O)O)c2)c1 [Compound 14d] : 15.3 µM
